Listed compounds paired with reported DC50
TEST_SYSTEM: EML4-ALK (Homo sapiens)
Construct: endogenous in cells; host or cells: H3122 (NSCLC), single-cell clone after CRISPR knock-in of HiBit; the other entry of the earlier key: EML4 (Q9HC35, Echinoderm microtubule-associated protein-like 4)
Sequence (Q9UM73 with tags, fused parts or gaps): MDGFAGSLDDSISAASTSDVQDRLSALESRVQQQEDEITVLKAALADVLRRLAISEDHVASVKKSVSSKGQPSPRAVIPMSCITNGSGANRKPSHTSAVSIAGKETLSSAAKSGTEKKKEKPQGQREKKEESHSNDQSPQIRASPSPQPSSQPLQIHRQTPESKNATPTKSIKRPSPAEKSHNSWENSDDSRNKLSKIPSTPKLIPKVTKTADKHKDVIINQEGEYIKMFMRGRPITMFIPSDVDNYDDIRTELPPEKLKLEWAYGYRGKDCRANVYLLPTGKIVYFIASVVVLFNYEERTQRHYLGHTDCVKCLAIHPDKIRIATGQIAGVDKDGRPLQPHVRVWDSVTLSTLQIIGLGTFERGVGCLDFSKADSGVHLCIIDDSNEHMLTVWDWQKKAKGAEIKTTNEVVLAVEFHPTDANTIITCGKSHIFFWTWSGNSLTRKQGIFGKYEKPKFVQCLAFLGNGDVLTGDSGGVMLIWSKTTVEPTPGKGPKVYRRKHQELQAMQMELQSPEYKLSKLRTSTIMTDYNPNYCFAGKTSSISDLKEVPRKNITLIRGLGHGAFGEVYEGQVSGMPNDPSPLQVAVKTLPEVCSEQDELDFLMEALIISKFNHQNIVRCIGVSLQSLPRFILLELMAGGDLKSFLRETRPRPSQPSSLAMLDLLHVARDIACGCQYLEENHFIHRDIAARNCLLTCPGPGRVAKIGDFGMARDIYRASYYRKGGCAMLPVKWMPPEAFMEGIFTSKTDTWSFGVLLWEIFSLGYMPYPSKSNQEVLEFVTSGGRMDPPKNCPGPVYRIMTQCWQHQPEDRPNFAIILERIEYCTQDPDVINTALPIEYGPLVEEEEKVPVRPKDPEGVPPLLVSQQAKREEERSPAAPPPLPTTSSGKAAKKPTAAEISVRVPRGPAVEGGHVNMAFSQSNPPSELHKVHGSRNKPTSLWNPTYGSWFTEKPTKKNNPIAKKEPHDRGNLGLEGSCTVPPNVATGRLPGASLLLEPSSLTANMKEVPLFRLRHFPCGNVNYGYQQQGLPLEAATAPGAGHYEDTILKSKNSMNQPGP
PROCEDURE_DETAILS: EML4-ALK HiBit degradation assay in CRISPR-tagged H3122 cells (Nano-Glo HiBit Lytic Detection)
Format: cell-based
MEASUREMENT_CONTEXT: Table 1; average DC50; read-out: Degradation Avg. DC50
// units = µM; emit number, no label

Worked cases, DC50 given:
COMPOUND: COc1cc(CCNCCOCCOCCOCCC(=O)N[C@H](C(=O)N2C[C@H](O)C[C@H]2C(=O)N[C@@H](C)c2ccc(-c3scnc3C)cc2)C(C)(C)C)c(C)cc1Nc1ncc(Cl)c(Nc2ccccc2S(=O)(=O)C(C)C)n1
TEST_SYSTEM: EML4-ALK (Homo sapiens)
READOUT_UNITS: µM
DC50: 0.723
--
COMPOUND: COc1cc(CCNCCCCCSC(C)(C)[C@H](NC(C)=O)C(=O)N2C[C@H](O)C[C@H]2C(=O)N[C@@H](C)c2ccc(-c3scnc3C)cc2)c(C)cc1Nc1ncc(Cl)c(Nc2ccccc2S(=O)(=O)C(C)C)n1
TEST_SYSTEM: EML4-ALK (Homo sapiens)
READOUT_UNITS: µM
DC50: 0.786
--
COMPOUND: COc1cc(CCN(C)C(=O)CCCCCC#Cc2cccc3c2C(=O)N(C2CCC(=O)NC2=O)C3=O)c(C)cc1Nc1ncc(Cl)c(Nc2ccccc2S(=O)(=O)C(C)C)n1 (stereo not shown)
TEST_SYSTEM: EML4-ALK (Homo sapiens)
READOUT_UNITS: µM
DC50: 0.203
--
COMPOUND: COc1cc(CCN(C)CCCCCNc2cccc3c2C(=O)N(C2CCC(=O)NC2=O)C3=O)c(C)cc1Nc1ncc(Cl)c(Nc2ccccc2S(=O)(=O)C(C)C)n1 (stereo not shown)
TEST_SYSTEM: EML4-ALK (Homo sapiens)
READOUT_UNITS: µM
DC50: 0.041
--
COMPOUND: COc1cc(CCNCCOCCOCCC(=O)N[C@H](C(=O)N2C[C@H](O)CC2C(=O)N[C@@H](C)c2ccc(-c3scnc3C)cc2)C(C)(C)C)c(C)cc1Nc1ncc(Cl)c(Nc2ccccc2S(=O)(=O)C(C)C)n1 (stereo partly shown)
TEST_SYSTEM: EML4-ALK (Homo sapiens)
READOUT_UNITS: µM
DC50: 0.801
--
COMPOUND: COc1cc(CCN(C)C(=O)CCOCCOCCNc2cccc3c2C(=O)N(C2CCC(=O)NC2=O)C3=O)c(C)cc1Nc1ncc(Cl)c(Nc2ccccc2S(=O)(=O)C(C)C)n1 (stereo not shown)
TEST_SYSTEM: EML4-ALK (Homo sapiens)
READOUT_UNITS: µM
DC50: 0.067
--
COMPOUND: COc1cc(CCN(C)C(=O)CCCCCCCC(=O)N[C@H](C(=O)N2C[C@H](O)C[C@H]2C(=O)N[C@@H](C)c2ccc(-c3scnc3C)cc2)C(C)(C)C)c(C)cc1Nc1ncc(Cl)c(Nc2ccccc2S(=O)(=O)C(C)C)n1
TEST_SYSTEM: EML4-ALK (Homo sapiens)
READOUT_UNITS: µM
DC50: 0.626
--
COMPOUND: COc1cc(CCN(C)C(=O)CCCCCNC(=O)COc2cccc3c2C(=O)N(C2CCC(=O)NC2=O)C3=O)c(C)cc1Nc1ncc(Cl)c(Nc2ccccc2S(=O)(=O)C(C)C)n1 (stereo not shown)
TEST_SYSTEM: EML4-ALK (Homo sapiens)
READOUT_UNITS: µM
DC50: 0.195
--
COMPOUND: COc1cc(CCN(C)C(=O)CCCCCCCCNC(=O)COc2cccc3c2C(=O)N(C2CCC(=O)NC2=O)C3=O)c(C)cc1Nc1ncc(Cl)c(Nc2ccccc2S(=O)(=O)C(C)C)n1 (stereo not shown)
TEST_SYSTEM: EML4-ALK (Homo sapiens)
READOUT_UNITS: µM
DC50: 0.063

With those in mind, consider the next compound.
Query: Tell me measured DC50 for COc1cc(CCNCCCC(=O)N[C@H](C(=O)N2C[C@H](O)C[C@H]2C(=O)N[C@@H](C)c2ccc(-c3scnc3C)cc2)C(C)(C)C)c(C)cc1Nc1ncc(Cl)c(Nc2ccccc2S(=O)(=O)C(C)C)n1 please.
Reply: 1.23
